Here the recorded IC50 is given for each entry.
Molecular target: UniProt:Q9NWZ3
Sequence (Q9NWZ3 whole entry): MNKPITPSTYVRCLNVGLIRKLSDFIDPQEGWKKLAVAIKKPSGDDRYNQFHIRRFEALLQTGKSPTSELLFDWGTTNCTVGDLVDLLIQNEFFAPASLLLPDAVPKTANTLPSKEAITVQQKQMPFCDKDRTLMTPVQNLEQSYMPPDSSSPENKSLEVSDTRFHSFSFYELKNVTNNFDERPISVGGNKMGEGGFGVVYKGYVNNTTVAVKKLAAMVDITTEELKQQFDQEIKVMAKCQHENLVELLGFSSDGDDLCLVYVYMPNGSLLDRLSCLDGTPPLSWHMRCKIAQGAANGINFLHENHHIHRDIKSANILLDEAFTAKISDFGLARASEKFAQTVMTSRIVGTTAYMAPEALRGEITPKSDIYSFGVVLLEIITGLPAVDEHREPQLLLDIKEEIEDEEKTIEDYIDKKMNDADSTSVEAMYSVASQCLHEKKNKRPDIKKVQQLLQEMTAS
Test: 2-hour 10 μM ATP Biochemical Assay (MesoScale Detection format; IRAK4 phosphorylation of biotin labeled IRAK1 activation loop peptide)
Conditions: IRAK4 MSD BIOCHEMICAL (10 μM ATP) IC50 (μM), 1 nM IRAK4, 2 hours
Unit µM implied. Number only.

INSERT INTO assay_data (molecule, test_target, observable, measurement_units, readout_number) VALUES
  ('CCOc1cc2nc(C(O)C3CC3)cn2cc1NC(=O)c1cccc(C(F)(F)F)n1 (centres unmarked) [Example 168]', 'UniProt:Q9NWZ3', 'IC50', 'µM', 0.007),
  ('CCOc1cc2nc(C3CCN(C)C(=O)C3)cn2cc1NC(=O)c1cccc(C(F)F)n1 (racemic) [Example 75]', 'UniProt:Q9NWZ3', 'IC50', 'µM', 0.001),
  ('CCOc1cc2nc(C34CC(OC)(C3)C4)cn2cc1NC(=O)c1cccc(C(F)F)n1 [Example 153]', 'UniProt:Q9NWZ3', 'IC50', 'µM', 0.001),
  ('COc1nc(NC(=O)c2ccn(CC(F)F)n2)cn2cc(C3CCOCC3)nc12 [Example 452]', 'UniProt:Q9NWZ3', 'IC50', 'µM', 0.031),
  ('CCOc1cc2nc(C(C)(C)C#N)cn2cc1NC(=O)c1coc(C(F)F)n1 [Example 359]', 'UniProt:Q9NWZ3', 'IC50', 'µM', 0.01),
  ('CCOc1cc2nc(C(C)(F)F)cn2cc1NC(=O)c1cccc(C(F)F)n1 [Example 109]', 'UniProt:Q9NWZ3', 'IC50', 'µM', 0.002),
  ('CCOc1cc2nc(C3CCOCC3)cn2cc1NC(=O)c1cccc(C(C)C)n1 [Example 218]', 'UniProt:Q9NWZ3', 'IC50', 'µM', 0.001),
  ('CN1CCC(Oc2cc3nc(C4CCOCC4)cn3cc2NC(=O)c2cccc(C(F)F)n2)C1=O (centres unmarked) [Example 181]', 'UniProt:Q9NWZ3', 'IC50', 'µM', 0.001);

The reported IC50 of the molecule CCOc1cc2nc(C3CC3)cn2cc1NC(=O)c1cccc(C2CCOC2)n1 (centres unmarked) [Example 238] was 0.004

Where do the numbers come from? From patent US20220089592A1.
